measurement.target: PAX6 PD G72C (human, UniProt P26367 4-136, G72C)
Sequence (P26367 4-136 G72C): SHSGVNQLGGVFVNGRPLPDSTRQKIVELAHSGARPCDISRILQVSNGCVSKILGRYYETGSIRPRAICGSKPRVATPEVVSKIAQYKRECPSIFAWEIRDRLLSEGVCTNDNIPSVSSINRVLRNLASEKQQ
protocol.details: ITC; ITC (iTC200) at 25 °C in buffer C (composition not given; protein stored in 25 mM Hepes pH 7.5, 150 mM NaCl, 5 mM b-ME); 20 uM protein in cell, 200 uM DNA in syringe, one-site model
measurement.conditions: protein: recombinant; tags: N-terminal His6 removed by TEV; blunt
pKd: −log10 of the molar value.
Measured pKd accompanies every entry in the list below.

>  <binder>
P6CON (dsDNA) DNA 1: AAATTTTCACGCTTGAGTTCACAGCT DNA 2: AGCTGTGAACTCAAGCGTGAAAATTT

>  <pKd>
5.85

$$$$
>  <binder>
CD19 A-ins (dsDNA) DNA 1: GAATGGGGCACTGAGGCGTGACCACCGC DNA 2: GCGGTGGTCACGCCTCAGTGCCCCATTC

>  <pKd>
5.30

$$$$

From: paper PMC7046147
